Where these numbers come from: ChEMBL document CHEMBL1123393

Target: Serotonin 2 (5-HT2) receptor (Rattus norvegicus, UniProt P30994+P08909+P14842)
Assay: Displacement of [3H]ketanserin from rat prefrontal cortex 5-hydroxytryptamine 2 receptor
Type: tissue-based
Would you mind telling me the reported Ki of each entry?
Numbers only, in µM.

# annotated cases, reported Ki shown
| compound | assay target | Ki, µM |
| --- | --- | --- |
| COc1cc(Br)ccc1CC(C)N (centres undefined) | Serotonin 2 (5-HT2) receptor (Rattus norvegicus, UniProt P30994+P08909+P14842) | 4.87 |
| CCCNC(C)Cc1cc(OC)ccc1OC (centres undefined) | Serotonin 2 (5-HT2) receptor (Rattus norvegicus, UniProt P30994+P08909+P14842) | 25.6 |
| CC(N)Cc1ccc(Br)cc1 (centres undefined) | Serotonin 2 (5-HT2) receptor (Rattus norvegicus, UniProt P30994+P08909+P14842) | 4.65 |

Value sought for every listed compound: Ki.
1. CCCNC(C)Cc1cc(OC)c(Br)cc1OC (centres undefined)
2. COc1cc(C[C@@H](C)N)c(OC)cc1I

1.93
0.0099

Below are some compounds; for each one, tell me its Ki.
1. COc1cc(CC(C)N)c(OC)cc1I (centres undefined)
2. COc1cc(CC(C)N)c(O)cc1Br (centres undefined)
3. COc1cccc(CC(C)N)c1 (racemic)

1. 0.035
2. 0.21
3. 7.85
